Assay: qHTS for Inhibitors of binding or entry into cells for Lassa Virus; also: nearly all actives have a fitted effect of over 50% in size
Conditions: Lassa virus pseudotype entry inhibition, cell reporter; series mostly up to 37.9 µM
About 3,700 (1.2%) of roughly 300,000 compounds were called active. Inconclusive results (about 20%) are left out. Calls follow the shape of the full dose curve; tested in HEK293 cells. Only a selection was taken, and actives are over-represented in it overall.
# output must be one of label 1 for active, label 0 for inactive

• CC1(C)C/C(=N/Nc2ccc([N+](=O)[O-])cc2[N+](=O)[O-])C(C)(C)O1 = label 0
• C/C(CC(=O)Nc1cccc(F)c1)=N\NC(=O)C(=O)NC1CCCCC1 = label 0
• CCOc1ccc(N/C=C/C(=O)c2ccccc2)cc1 = label 1

I'd appreciate the recorded outcome for Cc1cc(C)cc(NC(=O)NC2CCCCCCC2)c1 from this test.
label 0

* * *

Experiment: qHTS for Inhibitors of binding or entry into cells for Lassa Virus; also: nearly all actives have a fitted effect of over 50% in size
Conditions: Lassa virus pseudotype entry inhibition, cell reporter; series mostly up to 37.9 µM
About 3,700 (1.2%) of roughly 300,000 compounds were called active. Roughly 20% stayed inconclusive and do not appear here. Calls come from the whole dose curve; tested in HEK293 cells. For the sample, actives were picked, then their nearest neighbours and some compounds at random.
# output must be one of class 1 for active, class 0 for inactive

Completed entries (count: 9):
* O=C(Nc1ccc(N2CCOCC2)cc1)c1ccc2c(c1)OCO2 | class 0
* COc1cccc(-c2nnc(NC(=O)c3ccc(S(=O)(=O)N(CC(C)C)CC(C)C)cc3)o2)c1 | class 1
* O=C(/C=C/c1cccc([N+](=O)[O-])c1)OCC(=O)N1CCOCC1 | class 0
* Cc1nn(-c2ccccc2)c(C)c1C(=O)OCC(=O)NC(=O)NC1CCCCC1 | class 0
* O=C(Nc1ccc2c(c1)OCCO2)c1ccc(Cl)c(S(=O)(=O)N2CCCCC2)c1 | class 1
* O=c1c2c(nc3cc(-c4cccc(Cl)c4)[nH]n13)CCCC2 | class 1
* O=C(Nc1cccc([N+](=O)[O-])c1)c1ccc2c(c1)OCO2 | class 0
* CCc1ccc(NS(=O)(=O)c2ccc3[nH]cc(C(=O)NCCc4cccc(C)c4)c(=O)c3c2)cc1 | class 0
* O=C(Nc1cccc(S(=O)(=O)N2CCCCC2)c1)c1ccc2c(c1)OCO2 | class 0

Now take the following compound into account.
I'd appreciate the recorded outcome for O=C(Nc1ccccc1F)c1ccc2c(c1)OCO2 from this test.
class 0

* * *

Experiment: qHTS for Inhibitors of binding or entry into cells for Lassa Virus; also: nearly all actives have a fitted effect of over 50% in size
Details: Lassa virus pseudotype entry inhibition, cell reporter; series mostly up to 37.9 µM
Among all 300,000 compounds or so, about 3,700 (1.2%) were called active. Another 20% or so got no clear call; they are omitted. The call rests on the fitted dose curve; tested in HEK293 cells. Only a selection was taken, and actives are over-represented in it overall.
# output must be one of T for active, F for inactive

I'd appreciate the recorded outcome for COc1ccc(-c2cn3nc(N4CCC(C(=O)Nc5cccc(C)c5C)CC4)sc3n2)cc1 from this test.
F

I'd appreciate the recorded outcome for COc1cc2c(cc1OC)CN(C(=O)c1cc(S(=O)(=O)N3CCCCC3)ccc1Cl)CC2 from this test.
F

I'd appreciate the recorded outcome for CCN1CCN(C(=O)c2ccccc2N(C)S(=O)(=O)c2ccc(C)cc2)CC1 from this test.
F

I'd appreciate the recorded outcome for CCOC(=O)N1CCN(C(=O)c2ccccc2N(Cc2ccccc2)S(=O)(=O)c2ccc(OC)cc2)CC1 from this test.
T

I'd appreciate the recorded outcome for O=S(=O)(c1ccc(Br)cc1)c1nc(-c2ccccc2)oc1NCc1cccnc1 from this test.
F

I'd appreciate the recorded outcome for CC(/C=C/c1ccccc1)=N\NC(=O)C1CC1(C)c1ccccc1 (stereo not drawn) from this test.
T

I'd appreciate the recorded outcome for O=S(=O)(Nc1ccc2ccccc2c1)N1CCCCC1 from this test.
F

I'd appreciate the recorded outcome for Cc1ccc(NC(=O)c2oc3ccc(S(=O)(=O)N4CCCCC4)cc3c2C)cc1Cl from this test.
F

I'd appreciate the recorded outcome for c1ccc2c(c1)C(=NC1CCCCC1)NC2=NC1CCCCC1 from this test.
T

I'd appreciate the recorded outcome for O=C(COC(=O)c1ccc(O)cc1O)NC(=O)c1ccccc1 from this test.
F

I'd appreciate the recorded outcome for Cc1cccc(N2CCN(C(=O)Cn3ncc4c5ccccc5n(C)c4c3=O)CC2C)c1 (stereo not drawn) from this test.
F

* * *

Test: qHTS for Inhibitors of binding or entry into cells for Lassa Virus; also: nearly all actives have a fitted effect of over 50% in size
Settings: Lassa virus pseudotype entry inhibition, cell reporter; series mostly up to 37.9 µM
Among all 300,000 compounds or so, about 3,700 (1.2%) were called active. Another 20% or so got no clear call; they are omitted. Calls come from the whole dose curve; tested in HEK293 cells. What follows is part of a selection rich in actives, with near analogues and random picks from the rest.
# output must be one of YES = active, NO = inactive

Completed entries (count: 8):
• CC(=O)c1c(C)[nH]c(C(=O)N2CCN(S(=O)(=O)c3ccc(F)c(F)c3)CC2)c1C = NO
• CCOc1cc(N2CCOCC2)c(OCC)cc1NC(=O)COc1cccc2cccnc12 = YES
• Cc1ccc(S(=O)(=O)NCCC(=O)OCC(=O)N(C)c2ccccc2)cc1 = NO
• Cc1cccc(NS(=O)(=O)c2ccc(C(=O)NCC(C)(C)N3CCOCC3)cc2)c1C = NO
• Cc1cccc(C=CC(=O)c2ccc(Cl)cc2)c1 = NO
• Cc1ccc(NC(=S)N(CCN(C)C)Cc2cccs2)cc1C = YES
• CCOC(=O)CN1C(C(=O)c2ccccc2)=C(OC(=O)C(C)(C)C)c2ccccc2S1(=O)=O = NO
• NC(=O)Cc1nc2scc(-c3ccc(Cl)cc3)c2c(=O)[nH]1 = NO

Now take the following compound into account.
I'd appreciate the recorded outcome for Cc1ccc(-c2nn(-c3ccc(F)cc3)cc2C(=O)NCC(c2cccs2)N2CCOCC2)cc1 (stereo not given) from this test.
NO

* * *

Test: qHTS for Inhibitors of binding or entry into cells for Lassa Virus; also: nearly all actives have a fitted effect of over 50% in size
Conditions: Lassa virus pseudotype entry inhibition, cell reporter; series mostly up to 37.9 µM
The whole screen tested about 300,000 compounds, of which about 3,700 (1.2%) were called active. About 20% were inconclusive and are not listed. Calls come from the whole dose curve; tested in HEK293 cells. The list comes from a sample in which actives are over-represented; it also holds close analogues and randomly drawn compounds.
# output must be one of 1.0 (active), 0.0 (inactive)

* CCN(CC)S(=O)(=O)c1ccc2c(c1)c(=O)c(C(=O)N1CCN(c3cccc(Cl)c3)CC1)cn2C | 0.0
* O=C(NCCSCc1ccccc1)c1ccc(Cl)c(S(=O)(=O)N2CCOCC2)c1 | 0.0
* CC(C)Sc1nc(N)nc2c1ncn2C1OC(CO)C(O)C1O (stereo not drawn) | 0.0
* COc1ccc(-c2cc(-c3ccccc3)nc3c2COc2ccc(Cl)cc2-3)cc1 | 0.0
* O=C(CN1C(=O)c2ccccc2S1(=O)=O)N1CCc2ccccc21 | 1.0

I'd appreciate the recorded outcome for COc1ccccc1C(=O)Nc1ccc(Nc2ccccc2)cc1 from this test.
0.0

I'd appreciate the recorded outcome for CCOc1ccc(C(=O)NCC(=O)N2CCCCCCC2)cc1OCC from this test.
0.0

I'd appreciate the recorded outcome for CC(Sc1nc2ccccc2c(=O)n1Cc1ccco1)C(=O)c1ccccc1 (stereo not drawn) from this test.
1.0

* * *

Assay: qHTS for Inhibitors of binding or entry into cells for Lassa Virus; also: nearly all actives have a fitted effect of over 50% in size; also: potency is read from the fitted curve at half-maximal effect
Conditions: Lassa virus pseudotype entry inhibition, cell reporter; series mostly up to 37.9 µM
About 3,700 (1.2%) of roughly 300,000 compounds were called active. Not shown: some 20% with an inconclusive outcome. The full list was thinned out, with actives kept by preference.
Attribute measured: Potency

Example entries begin here.
* COC(=O)c1cc(C(=O)OC)n2ccc3cc(OC)c(OC)cc3c12 | inactive
* Brc1ccc(-c2csc(N/N=C/c3ccc4c(c3)OCO4)n2)cc1 | inactive
* Cc1ccc(S(=O)(=O)N2CCC(=O)N([C@H](COCc3ccccc3)C(C)C)CC2)cc1 | inactive
* Cc1ccc(-c2cc(C(=O)NC3CCN(Cc4ccccc4)CC3)c3ccccc3n2)cc1 | inactive
* CCn1nnc2cc(C(=O)Nc3ccc(C(=O)OC(C)C)cc3)ccc21 | inactive

Potency reported for this compound CCCCN1CC(COc2ccccc2)Oc2cccc(F)c2S1(=O)=O (stereo unspecified) : inactive

Potency reported for this compound CC1CN/C(=C\C(=O)c2ccc(Br)cc2)C(=O)N1 (stereo unspecified) : 8.2 µM (active)

Potency reported for this compound COc1cccc(NC(=O)c2ccc3c(SCC(=O)O)c4c(nc3c2)CCCC4)c1 : inactive

* * *

Assay: qHTS for Inhibitors of binding or entry into cells for Lassa Virus; also: nearly all actives have a fitted effect of over 50% in size
Conditions: Lassa virus pseudotype entry inhibition, cell reporter; series mostly up to 37.9 µM
Screen size: about 300,000 compounds; about 3,700 (1.2%) were called active. Another 20% or so got no clear call; they are omitted. The call rests on the fitted dose curve; tested in HEK293 cells. The full list was thinned out, with actives kept by preference.
# output must be one of active, inactive

- O=C(/C=C/c1ccccc1)c1ccccc1O: inactive
- O=C(NCc1ccc(F)cc1)c1ccc2nc(N3CCCCC3)sc2c1: inactive
- Cc1nc2cc3c(cc2s1)OCO3: inactive
- COCCNc1cc(-c2ccccc2)nc2cc(-c3cccc(F)c3)nn12: inactive
- COc1ccc(C(CCN(Cc2ccc(OC)c(OC)c2)C(=O)CCl)c2ccccc2)cc1 (configuration not stated): active

I'd appreciate the recorded outcome for CCc1cc(C(N)=O)c(NC(=O)c2ccc(OC)cc2)s1 from this test.
inactive

I'd appreciate the recorded outcome for Fc1ccc(-n2ncc3c(Nc4ccc(Oc5ccccc5)cc4)ncnc32)cc1 from this test.
inactive

I'd appreciate the recorded outcome for Cc1ccsc1C(=O)OCC(=O)c1cc(C)n(CC2CCCO2)c1C (configuration not stated) from this test.
active

I'd appreciate the recorded outcome for Cc1cc(C)nc(N/N=C/c2c(CO)cnc(C)c2O)n1 from this test.
inactive

I'd appreciate the recorded outcome for COc1cccc(Nc2ncccc2C(=O)O)c1 from this test.
inactive

I'd appreciate the recorded outcome for CC(C)c1ccc(C=NNc2ccc([N+](=O)[O-])cn2)cc1 from this test.
inactive

I'd appreciate the recorded outcome for Cc1cc(C(=O)Cn2cnc3cc([N+](=O)[O-])ccc3c2=O)c(C)n1CC1CCCO1 (configuration not stated) from this test.
inactive

I'd appreciate the recorded outcome for CCC(=O)N1CCN(c2ccccc2NC(=O)COc2cccc(C)c2C)CC1 from this test.
inactive

I'd appreciate the recorded outcome for CCOC(=O)CCC(NC(=O)c1ccc(CNc2nc3cc(C(F)(F)F)ccc3nc2C(=O)OCC)cc1)C(=O)OCC (configuration not stated) from this test.
inactive

I'd appreciate the recorded outcome for COc1cc(/C=C/c2ccc(/C=C/c3cc(OC)c(OC)c(OC)c3)cc2)cc(OC)c1OC from this test.
active

I'd appreciate the recorded outcome for CC(C=Cc1ccccc1)=NNS(=O)(=O)c1ccc([N+](=O)[O-])cc1 from this test.
inactive

I'd appreciate the recorded outcome for CCC(=O)c1ccc(OC(=O)/C=C/c2cc(OC)c(OC)c(OC)c2)cc1 from this test.
inactive

I'd appreciate the recorded outcome for O=C(Nc1ncccc1O)c1ccc(S(=O)(=O)N2CCCCCC2)cc1 from this test.
inactive

I'd appreciate the recorded outcome for CCOc1ccc(/C=C(/C#N)c2nnc(N3CCOCC3)n2-c2ccccc2)cc1OC from this test.
inactive

I'd appreciate the recorded outcome for COc1cc(NC(=O)CSc2ccc(-c3cccnc3)nn2)cc(OC)c1 from this test.
inactive

I'd appreciate the recorded outcome for CN1C(c2ccc(F)cc2)=CS/C1=C(/C#N)c1nnc2n1-c1ccccc1SC2 from this test.
inactive

I'd appreciate the recorded outcome for CN(O)C(=S)c1ccccc1 from this test.
active
